Condition summary: 283.15 K; 101.33 kPa; Liquid
Metric name: mass density (kg/m3)

1. CCCCO : 817.18
2. CO : 800.62
3. CCCO : 811.54
4. CCCCCCCO : 829.27
5. CN1CCN(C)C1=O : 1064.86
6. CCO : 797.88
7. CCCCCO : 821.81
8. CCCCCCCCO : 832.06
9. CCCCCCO : 826.03

----------
Condition summary: 313.15 K; 101.33 kPa; Liquid
Listing of entries alongside the reported mass density.
Metric name: mass density (kg/m3)

1) CCCO : 787.36
2) CCCCCCCCO : 811.21
3) CCO : 772.05
4) CCCCCCCO : 808.11
5) CCCCCCO : 804.46
6) CN1CCN(C)C1=O : 1038.38
7) CCCCCO : 799.71
8) CO : 772.32
9) CCCCO : 794.18

----------
Assay protocol: xn = mol fraction of the nth substance listed
Condition summary: 313.15 K; 101 kPa; Liquid; x1 = 0.5
Readings of mass density for the listed compounds
Metric name: mass density (kg/m3)

1) CN1CCN(C)C1=O [1,3-dimethyl-2-imidazolidinone] + CCCCO : 927.48
2) CN1CCN(C)C1=O [1,3-dimethyl-2-imidazolidinone] + CCCCCCO : 913.07
3) CN1CCN(C)C1=O [1,3-dimethyl-2-imidazolidinone] + CCCCCCCO : 907.49
4) CN1CCN(C)C1=O [1,3-dimethyl-2-imidazolidinone] + CCCCCCCCO : 902.66

----------
# mass density values compiled below
Assay protocol: xn = mol fraction of the nth substance listed
Condition summary: 298.15 K; 101 kPa; Liquid; x1 = 0.5
Metric name: mass density (kg/m3)

1. CN1CCN(C)C1=O [1,3-dimethyl-2-imidazolidinone] + CCCCCCCO : 919.28
2. CN1CCN(C)C1=O [1,3-dimethyl-2-imidazolidinone] + CCCCCCO : 925.23
3. CN1CCN(C)C1=O [1,3-dimethyl-2-imidazolidinone] + CCCCCCCCO : 914.29
4. CN1CCN(C)C1=O [1,3-dimethyl-2-imidazolidinone] + CCCCO : 940.22

----------
Overview of reported mass density across a group of compounds:
Assay protocol: xn = mol fraction of the nth substance listed
Condition summary: 283.15 K; 101 kPa; Liquid; x1 = 0.5
Metric name: mass density (kg/m3)

1) CN1CCN(C)C1=O [1,3-dimethyl-2-imidazolidinone] + CCCCCCCO : 931.08
2) CN1CCN(C)C1=O [1,3-dimethyl-2-imidazolidinone] + CCCCCCO : 937.21
3) CN1CCN(C)C1=O [1,3-dimethyl-2-imidazolidinone] + CCCCO : 952.85
4) CN1CCN(C)C1=O [1,3-dimethyl-2-imidazolidinone] + CCCCCCCCO : 925.89

----------
Consider the following compounds and their measured mass density readings.
Assay protocol: xn = mol fraction of the nth substance listed
Condition summary: 298.15 K; 101 kPa; Liquid; x1 = 0.6001
Metric name: mass density (kg/m3)

1. CN1CCN(C)C1=O [1,3-dimethyl-2-imidazolidinone] + CCCCCCCO : 942.82
2. CN1CCN(C)C1=O [1,3-dimethyl-2-imidazolidinone] + CCCO : 974.16
3. CN1CCN(C)C1=O [1,3-dimethyl-2-imidazolidinone] + CCCCCCO : 949.12
4. CN1CCN(C)C1=O [1,3-dimethyl-2-imidazolidinone] + CCCCCO : 956.02

----------
Assay protocol: xn = mol fraction of the nth substance listed
Condition summary: 283.15 K; 101 kPa; Liquid; x1 = 0.6001
Metric name: mass density (kg/m3)

1) CN1CCN(C)C1=O [1,3-dimethyl-2-imidazolidinone] + CCCO : 987.2
2) CN1CCN(C)C1=O [1,3-dimethyl-2-imidazolidinone] + CCCCCCO : 961.32
3) CN1CCN(C)C1=O [1,3-dimethyl-2-imidazolidinone] + CCCCCCCO : 954.87
4) CN1CCN(C)C1=O [1,3-dimethyl-2-imidazolidinone] + CCCCCO : 968.5

----------
Assay protocol: xn = mol fraction of the nth substance listed
Condition summary: 298.15 K; 101 kPa; Liquid; x1 = 0.4001
Measured mass density, listed per entry for reference.
Metric name: mass density (kg/m3)

1. CN1CCN(C)C1=O [1,3-dimethyl-2-imidazolidinone] + CCCCCCCCO : 893.01
2. CN1CCN(C)C1=O [1,3-dimethyl-2-imidazolidinone] + CCCCCCO : 901.99
3. CN1CCN(C)C1=O [1,3-dimethyl-2-imidazolidinone] + CCCCCO : 907.84
4. CN1CCN(C)C1=O [1,3-dimethyl-2-imidazolidinone] + CCCO : 925.54

----------
Assay protocol: xn = mol fraction of the nth substance listed
Condition summary: 283.15 K; 101 kPa; Liquid; x1 = 0.2
List of mass density values.
Metric name: mass density (kg/m3)

1. CN1CCN(C)C1=O [1,3-dimethyl-2-imidazolidinone] + CCCCCCCCO : 865.7
2. CN1CCN(C)C1=O [1,3-dimethyl-2-imidazolidinone] + CCCCCCO : 868.74
3. CN1CCN(C)C1=O [1,3-dimethyl-2-imidazolidinone] + CCCCCO : 870.95
4. CN1CCN(C)C1=O [1,3-dimethyl-2-imidazolidinone] + CCO : 886.41
5. CN1CCN(C)C1=O [1,3-dimethyl-2-imidazolidinone] + CCCO : 880.77
6. CN1CCN(C)C1=O [1,3-dimethyl-2-imidazolidinone] + CCCCO : 874.68

Cited source for all entries: the NIST ThermoML archive (doi:10.1016/j.jct.2006.09.017)
